ASSAY_PROCEDURE: Aqueous solubility of the compound at pH 7.4
Format: physicochemical
Task for the reader: assign each of the following molecules its reported solubility.
Quick note: unit goes after the number.

Asked: Which solubility is reported for this molecule? CN(c1ncnc2[nH]ccc12)[C@H]1C[C@@H](NS(=O)(=O)CC2COC2)C1
Given back: 437 µM

Asked: Which solubility is reported for this molecule? CCCS(=O)(=O)N[C@H]1C[C@@H](N(C)c2ncnc3[nH]ccc23)C1 [ABROCITINIB]
Given back: 503 µM

Asked: Which solubility is reported for this molecule? CCCCS(=O)(=O)C[C@H]1C[C@@H](N(C)c2ncnc3[nH]ccc23)C1
Given back: 213 µM

Asked: Which solubility is reported for this molecule? CN(c1ncnc2[nH]ccc12)[C@H]1C[C@@H](NS(=O)(=O)CCCC#N)C1
Given back: 259 µM
